assayExplanation: Dissociation constant, pKa of the compound
Type: physicochemical
measurementLabel: pKa
Number only, please.

Below: 2 compounds and their reported pKa.
structure: COc1ccc(NC(=N)c2cccs2)cc1CSC1CCCC1
recordedNumber: 8.1
--
structure: COc1ccc(Cl)cc1NS(=O)(=O)c1ccc(OC)c2c1CC[C@@H](N(C)C)C2
recordedNumber: 10.5

Task: Which pKa value is on record for Cc1cc2nc(NC(=N)N)nc(C)c2cc1C ?
Output: 9.3

====

experimentalTarget: Pyroglutamylated RF-amide peptide receptor (Homo sapiens, UniProt Q96P65)
Sequence (Q96P65 whole entry): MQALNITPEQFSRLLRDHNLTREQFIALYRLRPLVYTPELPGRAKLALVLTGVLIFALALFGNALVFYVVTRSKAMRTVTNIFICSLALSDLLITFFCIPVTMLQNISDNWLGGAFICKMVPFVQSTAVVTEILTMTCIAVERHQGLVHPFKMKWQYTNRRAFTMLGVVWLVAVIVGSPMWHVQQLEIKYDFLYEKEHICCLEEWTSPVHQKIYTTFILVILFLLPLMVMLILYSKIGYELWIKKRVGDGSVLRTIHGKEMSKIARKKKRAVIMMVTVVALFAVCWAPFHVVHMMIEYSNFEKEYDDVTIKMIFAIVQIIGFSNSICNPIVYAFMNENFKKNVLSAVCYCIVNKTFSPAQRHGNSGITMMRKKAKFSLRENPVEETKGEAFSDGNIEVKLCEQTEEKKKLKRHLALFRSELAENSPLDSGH
assayExplanation: Displacement of [125I]-QRFP43 from human GPR103 receptor overexpressed in HEK membranes after 90 mins by liquid scintillation counting
Format: cell membranes
Reported pIC50 is given for each of the following compounds.
As a rule, pIC50 stands for the negative log10 of the concentration, concentration in M.

structure: COc1ccc(NC(=N)c2ccccc2)cc1CCC1CCCC1
experimentalTarget: Pyroglutamylated RF-amide peptide receptor (Homo sapiens, UniProt Q96P65)
recordedNumber: 6.70
//
structure: COc1ccc(NC(=N)c2cc(C)cs2)cc1CSC1CCCC1
experimentalTarget: Pyroglutamylated RF-amide peptide receptor (Homo sapiens, UniProt Q96P65)
recordedNumber: 7.00
//
structure: COc1ccc(NC(=N)c2ccsc2)cc1CSC1CCCC1
experimentalTarget: Pyroglutamylated RF-amide peptide receptor (Homo sapiens, UniProt Q96P65)
recordedNumber: 6.90

Task: Checklist item: pIC50 tested on Pyroglutamylated RF-amide peptide receptor (Homo sapiens, UniProt Q96P65), entry COc1ccc(NC(=N)c2cccs2)cc1COC1CCCC1 , value?
Output: 5.00

Task: Which pIC50 is reported with Pyroglutamylated RF-amide peptide receptor (Homo sapiens, UniProt Q96P65) for this entry: COc1ccc(NC(=N)c2cccnc2)cc1CSC1CCCC1 ?
Output: 6.30

Task: Return pIC50 measured with Pyroglutamylated RF-amide peptide receptor (Homo sapiens, UniProt Q96P65) given this compound: N=C(Nc1cccc(CSC2CCCC2)c1)c1cccs1
Output: 5.60

====

experimentalTarget: UniProt Q96P65
assayExplanation: Displacement of [125I]-QRFP43 from human GPR103 receptor overexpressed in HEK membranes after 90 mins by liquid scintillation counting
Format: cell membranes
Recorded IC50 for the following compounds
Please give a number only; it is taken to be in µM.

structure: COc1ccc(NC(=N)c2cccs2)cc1CSC1CCCC1
recordedNumber: 0.158

structure: C/N=C(/Nc1ccc(OC)c(CSC2CCCC2)c1)c1cccs1
recordedNumber: 0.631

structure: COc1ccc(C(=N)Nc2ccccc2)cc1CSC1CCCC1
recordedNumber: 3.98

Task: Please report the recorded IC50 for COc1ccc(NC(=N)c2ccccc2)cc1CSc1ccccc1 .
Output: 7.94

Task: Could you share which IC50 value was measured for Cc1cc2nc(NC(=N)N)nc(C)c2cc1C ?
Output: 5.01

Task: Give its IC50 value. Item: COc1ccc(NC(=N)c2ccc(Cl)cc2)cc1CSC1CCCC1
Output: 0.0398

Task: For the compound COc1ccc(NC(=N)c2nccs2)cc1CSC1CCCC1 , what IC50 is on record?
Output: 25.1

Task: Give its IC50 value. Item: COc1ccc(NC(=N)c2ccc(Br)s2)cc1CSC1CCCC1
Output: 0.126

Task: State the recorded IC50 for this entry: N=C(Nc1ccc(Cl)c(CSC2CCCC2)c1)c1cccs1
Output: 3.98

Task: # get_value(readout='IC50', item= COc1ccc(NC(=N)c2ccccc2)cc1CNC(=O)C1CCCC1 )
Output: 7.94

====

experimentalTarget: Pyroglutamylated RF-amide peptide receptor (Homo sapiens)
assayExplanation: Antagonist activity at human GPR103 receptor assessed as inhibition of inositol-1-phosphate production by cell-based assay
Assay type: functional
Collected IC50 values appear next to each entry.
Give a bare numeral; the unit nM is implied.

structure: COc1ccc(NC(=N)c2ccc(Cl)cc2)cc1CSC1CCCC1
measurementLabel: IC50
recordedNumber: 12.6
--
structure: N=C(Nc1cccc(CSC2CCCC2)c1)c1cccs1
measurementLabel: IC50
recordedNumber: 794
--
structure: COc1ccc(NC(=N)c2cccs2)cc1CSC1CCCC1
measurementLabel: IC50
recordedNumber: 50.1

Task: IC50 lookup needed for COc1ccc(NC(=N)c2cccnc2)cc1CSC1CCCC1 , thanks.
Output: 251

Task: What value of IC50 has been reported for the following compound? COc1ccc(NC(=N)c2ccccc2)cc1CSc1ccccc1
Output: 1580

Task: # IC50 lookup, item COc1ccc(NC(=N)Cc2ccccc2)cc1CSC1CCCC1
Output: 6310

Task: Could you share which IC50 value was measured for COc1ccc(C(=N)Nc2ccccc2)cc1CSC1CCCC1 ?
Output: 1000

====

assayExplanation: Distribution coefficient, log D of the compound at pH 7.4
measurementConditions: octanol/water
// classify: if (logD < 3) Yes else No

Task: Strictly below 3 in logD? N=C(Nc1ccc(Cl)c(CSC2CCCC2)c1)c1cccs1
Output: No

Task: Take the compound COc1ccc(NC(=N)c2cc(C)cs2)cc1CSC1CCCC1 and say whether its logD is less than 3.
Output: No

Task: Regarding COc1ccc(NC(=N)c2ccccc2)cc1CNC(=O)C1CCCC1 , kindly confirm whether its logD is beneath 3.
Output: Yes

Task: A record lists COc1ccc(NC(=N)c2ccccc2)cc1CSc1ccccc1 . Is its logD below 3?
Output: Yes

Task: Is logD of CCC(=N)Nc1ccc(OC)c(CSC2CCCC2)c1 strictly below 3?
Output: Yes

Task: Would you kindly verify if logD of C/N=C(\c1cccs1)N(C)c1ccc(OC)c(CSC2CCCC2)c1 is strictly less than 3?
Output: Yes

====

# logD annotations
assayExplanation: Distribution coefficient, log D of the compound at pH 7.4
measurementConditions: octanol/water

Sample answers from the record:
structure: COc1ccc(Cl)cc1NS(=O)(=O)c1ccc(OC)c2c1CC[C@@H](N(C)C)C2
measurementLabel: logD
result: 2.3

structure: COc1ccc(Nc2ccccn2)cc1CSC1CCCC1
measurementLabel: logD
result: 4.6

structure: COc1ccc(C(=N)Nc2ccccc2)cc1CSC1CCCC1
measurementLabel: logD
result: 2.8

structure: COc1ccc(NC(=N)c2nccs2)cc1CSC1CCCC1
measurementLabel: logD
result: 4

structure: COc1ccc(NC(=N)c2ccc(Br)s2)cc1CSC1CCCC1
measurementLabel: logD
result: > 5

structure: COc1ccc(NC(=N)c2cc(Br)cs2)cc1CSC1CCCC1
measurementLabel: logD
result: 4.7

structure: COc1ccc(NC(=N)Cc2ccccc2)cc1CSC1CCCC1
measurementLabel: logD
result: 2.3

structure: COc1ccc(NC(=N)c2cccs2)cc1COC1CCCC1
measurementLabel: logD
result: 2.7

structure: Cc1ccc(NC(=N)c2cccs2)cc1CSC1CCCC1
measurementLabel: logD
result: > 3.8

structure: N=C(Nc1cccc(CSC2CCCC2)c1)c1cccs1
measurementLabel: logD
result: 3.8

Task: What value of measured logD is listed for COc1ccc(NC(=N)c2ccncc2)cc1CSC1CCCC1 ?
Output: 2.9

Task: I would be grateful if you could share the reported logD for COc1ccc(NC(=N)c2cccnc2)cc1CSC1CCCC1 .
Output: 2.6

====

experimentalTarget: Pyroglutamylated RF-amide peptide receptor (Homo sapiens, UniProt Q96P65)
assayExplanation: Antagonist activity at human GPR103 receptor assessed as inhibition of inositol-1-phosphate production by cell-based assay
Assay type: functional
We begin with a simple list: items and their reported IC50.
Remember to follow the number with its unit.

structure: COc1ccc(NC(=N)c2ccncc2)cc1CSC1CCCC1
IC50: 1580 nM
--
structure: COc1ccc(NC(=N)c2ccccc2)cc1CNC(=O)C1CCCC1
IC50: 2510 nM
--
structure: COc1ccc(NC(=N)c2ccccc2)cc1CS(=O)(=O)C1CCCC1
IC50: 31600 nM

Task: # input compound: COc1ccc(NC(=N)c2ccccc2)cc1CSC1CCCC1 ; wanted: its IC50
Output: 20 nM

Task: State the recorded IC50 for this entry: COc1ccc(NC(=N)c2cc(Br)cs2)cc1CSC1CCCC1
Output: 158 nM

====

experimentalTarget: Pyroglutamylated RF-amide peptide receptor (Homo sapiens, UniProt Q96P65)
assayExplanation: Displacement of [125I]-QRFP43 from human GPR103 receptor overexpressed in HEK membranes after 90 mins by liquid scintillation counting
Format: cell membranes
measurementLabel: IC50
Give me the value, and tack the unit on after it.

structure: N=C(Nc1ccc(F)c(CSC2CCCC2)c1)c1cccs1
experimentalTarget: Pyroglutamylated RF-amide peptide receptor (Homo sapiens, UniProt Q96P65)
measurementLabel: IC50
result: 1260 nM

structure: Cc1ccc(NC(=N)c2cccs2)cc1CSC1CCCC1
experimentalTarget: Pyroglutamylated RF-amide peptide receptor (Homo sapiens, UniProt Q96P65)
measurementLabel: IC50
result: 10000 nM

Task: Please give the measured IC50 for this compound: COc1ccc(NC(=N)c2ccccc2)cc1CSC1CCCC1
Output: 25.1 nM

Task: State the recorded IC50 for this entry: COc1ccc(Cl)cc1NS(=O)(=O)c1ccc(OC)c2c1CC[C@@H](N(C)C)C2
Output: 79.4 nM
